Test Target: GLP-1R (Homo sapiens)
Construct: host or cells: CRE-bla CHO-K1
Sequence (P43220 24-463): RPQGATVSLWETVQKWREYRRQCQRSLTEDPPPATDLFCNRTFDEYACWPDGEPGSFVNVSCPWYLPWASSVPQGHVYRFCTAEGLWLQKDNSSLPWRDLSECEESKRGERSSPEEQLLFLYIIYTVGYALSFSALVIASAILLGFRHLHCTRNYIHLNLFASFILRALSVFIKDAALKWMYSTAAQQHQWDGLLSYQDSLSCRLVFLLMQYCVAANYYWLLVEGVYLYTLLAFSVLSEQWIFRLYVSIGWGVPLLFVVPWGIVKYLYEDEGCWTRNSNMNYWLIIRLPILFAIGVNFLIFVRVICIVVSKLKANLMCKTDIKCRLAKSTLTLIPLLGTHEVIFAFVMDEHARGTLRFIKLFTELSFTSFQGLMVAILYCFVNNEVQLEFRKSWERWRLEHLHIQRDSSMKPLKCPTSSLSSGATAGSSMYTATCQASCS
Sequence (P01275 100-127 partner limits assumed): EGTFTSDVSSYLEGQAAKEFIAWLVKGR
Run Description: EC20 GLP-1(9-36) PAM cAMP assay: dose response of compound in the presence of fixed concentration of GLP-1(9-36)
Assay type: cell-based
Applied Conditions: Emax as total cAMP; compound dose response with fixed GLP-1(9-36); GLP-1R CRE-bla CHO-K1 cells
Attribute Measured: EC20 GLP-1 (9-36) PAM Activity max cAMP (µM)

Look over these answered cases.
# Molecule, Test Target, Attribute Measured, Readout Value
data = [
    ("COc1ccc(OC)c(CC(=O)Nc2ccc(C(=O)N(CC(=O)O)Cc3ccc(-c4noc(-c5ccc(-c6ccc(C)cc6)cc5)n4)cc3)cc2)c1 [Compound 405]", "GLP-1R (Homo sapiens)", "EC20 GLP-1 (9-36) PAM Activity max cAMP", 0.206),
    ("COc1ccc(CC(=O)Nc2ccc(C(=O)N(CC(=O)O)Cc3ccc(-c4nc(-c5ccc(-c6ccc(C)cc6)cc5)co4)cc3)cc2)c(C(F)(F)F)c1 [Compound 360]", "GLP-1R (Homo sapiens)", "EC20 GLP-1 (9-36) PAM Activity max cAMP", 0.29),
    ("CCCCCCCOc1ccc(C(=O)Oc2ccc(CN(CC(=O)O)C(=O)c3ccc(NC(=O)Cc4ccc(C)c(OC)c4)cc3)cc2)cc1 [Compound 4]", "GLP-1R (Homo sapiens)", "EC20 GLP-1 (9-36) PAM Activity max cAMP", 0.371),
    ("CCCCCCCCc1ccc(C(=O)Oc2ccc(CN(CC(=O)O)C(=O)c3ccc(NC(=O)Cc4ccc(OC)cc4)cc3)cc2)cc1 [Compound 40]", "GLP-1R (Homo sapiens)", "EC20 GLP-1 (9-36) PAM Activity max cAMP", 0.397),
]

P: CCCCCCOc1ccc(C(=O)Oc2ccc(CN(CC(=O)O)C(=O)c3ccc(NC(=O)Cc4ccc(OC)cc4)cc3)cc2)cc1 [Compound 18]
Q: COc1ccc(CC(=O)Nc2ccc(C(=O)N(CC(=O)O)Cc3ccc(-c4noc(-c5ccc(-c6ccc(C)cc6)cc5)n4)cc3)cc2)c(C(F)(F)F)c1 [Compound 354]
Between the entries labeled P and Q , whose measured EC20 GLP-1 (9-36) PAM Activity max cAMP is lower? Mark your selection by writing its label.
P
(P: 0.182 µM, Q: 0.297 µM)
